# Test system: C57BL/6 mice given hANGPTL4-mFc
# Type: in vivo
# applied.conditions: antibody 5 mg/kg s.c.; 24 h later hANGPTL4-mFc 25 μg/mouse i.v.; bled 30 min after; mean±SEM
property: NEFA-C (mg/dL)

[[record]]
molecule = "H1H624P: anti-hANGPTL4 antibody, HCVR/LCVR SEQ ID NOs 210/212 (antibody, V domains shown) VH: EVQLVESGGGLVQPGGSLRLSCAASEFIFSSYAMNWVRQAPGKGLEWVSVISGSGDSKYYADSVKGRFTISRDNSKNTLYLQMNSLRVEDTAVYYCAKDGKDRYGFYYNFYGMDVWGQGTTVTVS VL: DIQMTQSPSFLSASVGDRVTITCWASQGISSYLAWYQQKPGKAPKILIYAASTLQSGVPSRFSASGSGTEFTLTISSLQPEDFATYHCQQLNSYPFTFGPGTKVDIK"
reading = 0.86

